protocol: folding enthalpy; higher = less favourable; fluorescence melt of hairpins on a sequencing array, two-state fit
condition.notes: sodium 0.088 M
Below, each of the sequences is paired with its reported folding enthalpy value.
Quick note: give the figure in kcal/mol, leave out the unit.

Known results for sequences:
>>> measured_result("GATTATGGAAACGTAATC (((((.(....).)))))")
-36.5
>>> measured_result("GCCCTGCGAAAGCATTGC ((..(((....)))..))")
-8.56
>>> measured_result("GAGGCAGCGAAAGCTCTC (((..(((....))))))")
-10.2
>>> measured_result("GATCATGTTTATGATC ((((((....))))))")
-39.1
>>> measured_result("GGGCTTACGAAAGTACCC (((..(((....))))))")
-20.9
>>> measured_result("GTACGGCCGAAAGGCTAC (((..(((....))))))")
-7.78
>>> measured_result("ATTCCGAAAGGAAT (((((....)))))")
-20.8
>>> measured_result("GTACTCGGAAACGAATAC (((.(((....))).)))")
-17.8

Ask: Looking for the measured folding enthalpy of GGGCCCGGAAACAGGCCC (((((.(....).))))) , can you help?
Result: -34.2

Ask: So what does the record say about folding enthalpy for GGCTTGCGAAAGCAGCC (((.(((....)))))) ?
Result: -29.1

Ask: What value of measured folding enthalpy is listed for GCAGCCGAAAGGCAATGC ((((((....)))..))) ?
Result: -17

Ask: Fill in the blank: the reported folding enthalpy of GTGTTGGGAAACCAATGC (..((((....))))..) is ____.
Result: -25.2

====

protocol: melting temperature; fluorescence melt of hairpins on a sequencing array, two-state fit, raised by 9.35 °C to match UV melts
condition.notes: sodium 0.088 M
So basically: is Tm under 50 °C? Then TRUE. Not under? Then FALSE.

>>> class_assignment("GGGGGCGGAAACGCTCCC (((.(((....))).)))")
"FALSE"
>>> class_assignment("GATCTCTGTTGAGATC ((((((....))))))")
"FALSE"
>>> class_assignment("GATCTTCCTCAAGATC ((((((....))))))")
"TRUE"
>>> class_assignment("GCTGACGAAAGTCTAGC ((((((....))).)))")
"FALSE"
>>> class_assignment("GGGGTGGAAACACCCC ((((((....))))))")
"FALSE"

Ask: Is the reported Tm for GAGTGCGGAAACGCATTC ((.((((....)))).)) strictly below 50 °C?
Result: FALSE

Ask: Dear reviewer, please state whether GGATGAGGAAACTTATCC ((((.((....)).)))) has Tm strictly beneath 50 °C.
Result: TRUE

====

protocol: melting temperature; fluorescence melt of hairpins on a sequencing array, two-state fit, raised by 9.35 °C to match UV melts
condition.notes: sodium 0.088 M
Classification by Tm follows these ranges: lo = under 40 °C, mid = from 40 °C up to 50 °C, hi = 50 °C and over

>>> class_assignment("GATCCCCCACGGGATC ((((((....))))))")
"hi"

Ask: Returns: class label. Input: GATCACCTTTGTGATC ((((((....))))))
Result: hi

Ask: Would you mind sorting GTGCCCGAAAGGGGCCAC ((((((....)))..))) into the appropriate category?
Result: mid

Ask: For GATCTGCGAAAGCAATC (((.(((....)))))) , which Tm bin applies?
Result: lo

Ask: Would you mind sorting GTATCCGAAAGGAACTAC ((((((....)))..))) into the appropriate category?
Result: lo

Ask: Categorize the following entry: GATGCTGGAAACGGTATC (((.(.(....).).)))
Result: lo

Ask: Kindly state the category for this sequence: GGTGATCGAAAGATAACC (((.(((....))).)))
Result: mid

Ask: GET /class?item= GATCAAGACGTTGATC ((((((....))))))
Result: mid

Ask: Hi, small favor: classify GATGCCCCGAAAGGGATC (((..(((....)))))) by its Tm when you get a moment.
Result: lo

Ask: Band for the recorded Tm of GATCGGGTTACCGATC ((((((....)))))) ?
Result: hi

Ask: Pick a category. Item: GGGCCAGGAAACTGGCTC (.(((((....))))).)
Result: hi

Ask: Lab note: sort GATCATGTGTATGATC ((((((....)))))) into the matching Tm band.
Result: mid

Ask: // return the class label for GGGCCCGAAAGGGGTCCC ((((((....)))..)))
Result: hi

Ask: Which bin, given its Tm, does GCCACGGGAAACCACGGC (((..((....))..))) occupy?
Result: mid

Ask: Bin this entry: GTCAATGGAAACATCGAC (((.(((....))).)))
Result: lo

Ask: Band assignment needed for GCAGAAGGAAACCTCTGC (((((.(....).))))) please.
Result: mid

Ask: Tag the class for GCGAAAGGAAACTTTTGC ((.((((....)))).))
Result: mid

Ask: Place this sequence in its band: GATCCTAGCCAGGATC ((((((....))))))
Result: hi
